These measurements were taken from patent US8026218.

target: T1, human NK1 receptor (human, UniProt P25103 1-407); assay: competition vs [3H]Substance P, hNK1 CHO cell membranes
T1 construct: whole, on cells; membrane preparations of the transfected cells were used; also called hNK1; human neurokinin-1 receptor
T1 sequence (P25103 whole entry): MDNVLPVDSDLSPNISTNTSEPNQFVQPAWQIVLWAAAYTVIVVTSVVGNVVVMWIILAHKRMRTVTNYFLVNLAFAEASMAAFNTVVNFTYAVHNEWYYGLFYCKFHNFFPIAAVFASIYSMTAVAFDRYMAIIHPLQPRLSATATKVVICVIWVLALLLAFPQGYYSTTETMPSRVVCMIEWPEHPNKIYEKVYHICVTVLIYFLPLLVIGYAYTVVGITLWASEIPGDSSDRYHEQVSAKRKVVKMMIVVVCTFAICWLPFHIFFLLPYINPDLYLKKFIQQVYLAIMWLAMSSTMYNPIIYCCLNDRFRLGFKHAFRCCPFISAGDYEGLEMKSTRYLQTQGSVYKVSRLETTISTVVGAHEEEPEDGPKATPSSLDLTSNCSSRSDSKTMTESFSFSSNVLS
Square brackets hold non-standard residues; d marks the D form. Ends that are not written are not given here. * marks the point of attachment. NH(3,5-(CF3)2-benzyl) = FC(F)(F)c1cc(CN*)cc(C(F)(F)F)c1; Dmt = Cc1cc(O)cc(C)c1C[C@H](N)C(=O)O
Form field: Ki (one value per entry).
// return numeric value only (unit: nM, not printed)

Solved entries:
Incoming: Requested field: Ki. Item: YAGFXPLW (not fully specified; Dmt at 1 (written Y); D-Ala at 2; Nle at 5 (written X); C-terminal dimethoxybenzyl amide (NHBn-2,4-(OMe)2 in Table 39, NH-3,5-Bn(OMe)2 in Table 31), also called TY054) [DmtDAlaGlyPheNleProLeuTrpNHBn-2,4-(OMe)2]
Outgoing: 0.95

Incoming: Requested field: Ki. Item: [Dmt][dA]GFMPLW-{NH(3,5-(CF3)2-benzyl)} (also called TY032) [DmtDAlaGlyPheMetProLeuTrpNHBn(CF3)2]
Outgoing: 0.0079

Incoming: Requested field: Ki. Item: YAGFXPLW (Dmt at 1 (written Y); D-Ala at 2; Nle at 5 (written X); C-terminal NH-3-Bn(CF3) amide, also called TY053) [DmtDAlaGlyPheNleProLeuTrpNHBn-3-(CF3)]
Outgoing: 1.04

Incoming: Requested field: Ki. Item: YAGFXPLW (Dmt at 1 (written Y); D-Ala at 2; Nle at 5 (written X); C-terminal NH-3,5-Bzl(CF3)2 amide, also called TY050) [DmtDAlaGlyPheNleProLeuTrpNHBn(CF3)2]
Outgoing: 0.075

# next binder below
Incoming: Requested field: Ki. Item: YAGFXPLW (Dmt at 1 (written Y); D-Ala at 2; Nle at 5 (written X); C-terminal NMe-3,5-Bzl(CF3)2 amide, also called TY052) [DmtDAlaGlyPheNleProLeuTrpNMeBn(CF3)2]
Outgoing: 0.21
